assay: log P and pKa, potentiometric method; conditions: pKa 2
pKa values for the molecules below.
Number only, please.

- molecule: "Cc1cccc(C(CC[C@@H](N)C(=O)O)(c2ccccc2)c2ccccc2)c1 [(R)-29]"
  recorded-result: 2.55

Kindly consider the entry below.
I have this molecule here, Cc1cccc(C(CC[C@H](N)C(=O)O)(c2ccccc2)c2ccccc2)c1 [(S)-29] , and I need its recorded pKa. 2.55

---

biological target: Eg5 (Homo sapiens, UniProt P52732); details: calculated from Ki^app of basal ATPase inhibition
Sequence (P52732 1-368): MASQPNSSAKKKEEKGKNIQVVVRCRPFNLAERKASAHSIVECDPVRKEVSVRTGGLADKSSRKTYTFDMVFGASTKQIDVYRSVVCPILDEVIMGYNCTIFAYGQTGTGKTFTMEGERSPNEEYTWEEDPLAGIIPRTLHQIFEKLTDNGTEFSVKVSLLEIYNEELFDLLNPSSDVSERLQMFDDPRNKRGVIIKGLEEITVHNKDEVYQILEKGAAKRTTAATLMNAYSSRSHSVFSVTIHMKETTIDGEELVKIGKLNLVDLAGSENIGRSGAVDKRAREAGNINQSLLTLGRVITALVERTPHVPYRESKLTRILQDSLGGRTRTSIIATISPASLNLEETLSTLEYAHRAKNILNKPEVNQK
readout-name: ligand efficiency
Number only, please.

Reference set (3 entries):
- structure-as-smiles: "NCCSC(c1ccccc1)(c1ccccc1)c1cccc(F)c1"
  target-or-test-system: "Eg5 (Homo sapiens, UniProt P52732)"
  readout-name: "ligand efficiency"
  recorded-result: 0.36
- structure-as-smiles: "N[C@@H](CSC(c1ccccc1)(c1ccccc1)c1cccc(Cl)c1)C(=O)O"
  target-or-test-system: "Eg5 (Homo sapiens, UniProt P52732)"
  readout-name: "ligand efficiency"
  recorded-result: 0.36
- structure-as-smiles: "NCCSC(c1ccccc1)(c1ccccc1)c1cccc(Cl)c1"
  target-or-test-system: "Eg5 (Homo sapiens, UniProt P52732)"
  readout-name: "ligand efficiency"
  recorded-result: 0.37

Kindly consider the entry below.
I have this compound here, `COc1cccc(C(SCCN)(c2ccccc2)c2ccccc2)c1` , and I need its recorded ligand efficiency. 0.37

---

assay: Mouse microsomal stability; conditions: mouse microsomes, 3 µM

- compound: "Cc1ccc(C(=O)N(CCCN)[C@@H](c2nc3cc(Cl)ccc3c(=O)n2Cc2ccccc2)C(C)C)cc1 [compound 54, ispinesib, reference compound]"
  microsomal stability, Clint, mice: "stable"
- compound: "Cc1cccc(C(CC[C@@H](N)C(=O)O)(c2ccccc2)c2ccccc2)c1 [(R)-29]"
  microsomal stability, Clint, mice: "stable"
- compound: "Cc1cccc(C(CC[C@H](N)C(=O)O)(c2ccccc2)c2ccccc2)c1 [(S)-29]"
  microsomal stability, Clint, mice: "stable"

---

experiment: log D7.4; settings: n-octanol/buffer, pH 7.4
readout-name: logD

I have this compound here, `NC(=O)c1cccc(C(SC[C@H](N)C(=O)O)(c2ccccc2)c2ccccc2)c1` , and I need its recorded logD. 1.13

---

pKa values for the compounds below.
assay: log P and pKa, potentiometric method; conditions: pKa 1

- compound: "Cc1cccc(C(CC[C@@H](N)C(=O)O)(c2ccccc2)c2ccccc2)c1 [(R)-29]"
  recorded-result: 9.07

Kindly consider the entry below.
I have this compound here, Cc1cccc(C(CC[C@H](N)C(=O)O)(c2ccccc2)c2ccccc2)c1 [(S)-29] , and I need its recorded pKa. 9.07
